These entries and their values trace back to patent US12139498B1.

Experiment: Fraction unbound in rat plasma
Format: in vitro ADME
Conditions: read-out: Rat Fu (plasma)
Method: Compound 70 was tested in several in in vitro assays to investigate both metabolism and pharmacokinetics. These assays may be performed according to known methods as generally described in the following references: Conde-Ceide et al. ACS Med. Chem. Lett. 2015, 6, 716-720; Morris et al. J. Med. Chem. 2014, 57, 10192-10197; and Bubser et al. ACS Chem. Neurosci. 2014, 5, 920-942.
result-type: fraction unbound
Answer field: number only, no words.

Query block: Suppose we examine the molecule Cc1c(N2CCc3nc(C4(F)CC4)sc3C2)nc2nn(C)c(=O)n2c1C [Compound 70] ; what fraction unbound value has been reported?
Result block: 0.267

###

assay: In vivo pharmacokinetics in rat; details: plasma, read-out: Rat Vss
result-type: Vd (L/kg)
Lab book: enter the figure in L/kg, no units written.

Query block: Suppose we examine the compound Cc1c(N2CCc3nc(C4(F)CC4)sc3C2)nc2nn(C)c(=O)n2c1C ; what Vd value has been reported?
Result block: 0.7

###

test: Fraction unbound in human plasma; type: in vitro ADME; conditions: read-out: Human Fu (plasma)
result-type: fraction unbound
Answer field: number only, no words.

Query block: Suppose we examine the molecule Cc1c(N2CCc3nc(C4(F)CC4)sc3C2)nc2nn(C)c(=O)n2c1C ; what fraction unbound value has been reported?
Result block: 0.217

###

Test: In vivo pharmacokinetics in rat
Settings: plasma, read-out: Rat Elim. t1/2 (converted)
Protocol: Compound 70 was tested in several in vivo assays and the pharmacokinetic parameters listed in the following table may be determined from pharmacokinetic studies in rat, dog, or cynomolgus monkey, according to known methods as generally described in the following references: Garrison et al. J. Med. Chem. 2022, 65, 6273-6286; Felts et al. J. Med. Chem 2017, 60, 5072-5085; and Yu et al. J. Med. Chem. 2021, 64, 4709-4729.
result-type: half-life

Query block: Suppose we examine the compound Cc1c(N2CCc3nc(C4(F)CC4)sc3C2)nc2nn(C)c(=O)n2c1C ; what half-life value has been reported?
Result block: 3.1 h

###

assay: In vivo pharmacokinetics in rat; details: brain / plasma
result-type: Kp
Answer field: number only, no words.

Query block: Suppose we examine the compound Cc1c(N2CCc3nc(C4(F)CC4)sc3C2)nc2nn(C)c(=O)n2c1C ; what Kp value has been reported?
Result block: 1.4

###

molecular target: Human M4 (Homo sapiens, UniProt P08173); test: M4 cell-based functional assay (calcium mobilization); parameters: expressed in transfected cells; details: % ACh maximum at 30 μM
Sequence (P08173 whole entry): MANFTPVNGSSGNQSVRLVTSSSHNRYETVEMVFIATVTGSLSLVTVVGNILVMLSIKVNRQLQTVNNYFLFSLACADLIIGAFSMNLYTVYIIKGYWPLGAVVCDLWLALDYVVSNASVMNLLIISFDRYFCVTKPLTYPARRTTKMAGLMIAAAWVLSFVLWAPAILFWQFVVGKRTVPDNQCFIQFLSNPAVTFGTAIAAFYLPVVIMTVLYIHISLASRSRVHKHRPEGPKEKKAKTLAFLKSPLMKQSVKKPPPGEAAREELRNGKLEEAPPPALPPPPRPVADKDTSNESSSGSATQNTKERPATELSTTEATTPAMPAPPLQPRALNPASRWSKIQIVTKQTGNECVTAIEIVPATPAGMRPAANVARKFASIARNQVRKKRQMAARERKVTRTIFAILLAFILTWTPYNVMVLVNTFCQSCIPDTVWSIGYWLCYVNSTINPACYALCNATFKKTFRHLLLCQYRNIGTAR
result-type: Emax at 30 µM (%)
Lab book: enter the figure in %, no units written.

Some solved entries appear below for comparison.
| smiles-representation | observed-value |
| --- | --- |
| Cc1cc2nccnc2nc1N1CCc2nc(-c3ccnn3C)sc2C1 | 54 |
| Cc1c(C#N)nnc(N2CCc3nc(C#N)sc3C2)c1C | 78 |

Query block: Suppose we examine the molecule Cc1nc2c(C)c(C)c(N3CCc4nc(Br)sc4C3)nn2c(=O)c1F ; what Emax at 30 µM value has been reported?
Result block: 81

Query block: Suppose we examine the molecule Cc1cc(C#N)nnc1N1CCc2nc(Br)sc2C1 ; what Emax at 30 µM value has been reported?
Result block: 99

Query block: Suppose we examine the molecule Cc1cc(=O)n2nc(N3CCc4nc(Br)sc4C3)c(C)cc2n1 ; what Emax at 30 µM value has been reported?
Result block: 89
